Source: paper PMC4650696

biological target: ERp57 (Homo sapiens, UniProt P30101); construct: human recombinant ERp57; test: insulin reduction turbidity assay with recombinant ERp57; irreversible after dilution; also competes with BAA in rat platelet lysate pull-down
Sequence (P30101 25-505): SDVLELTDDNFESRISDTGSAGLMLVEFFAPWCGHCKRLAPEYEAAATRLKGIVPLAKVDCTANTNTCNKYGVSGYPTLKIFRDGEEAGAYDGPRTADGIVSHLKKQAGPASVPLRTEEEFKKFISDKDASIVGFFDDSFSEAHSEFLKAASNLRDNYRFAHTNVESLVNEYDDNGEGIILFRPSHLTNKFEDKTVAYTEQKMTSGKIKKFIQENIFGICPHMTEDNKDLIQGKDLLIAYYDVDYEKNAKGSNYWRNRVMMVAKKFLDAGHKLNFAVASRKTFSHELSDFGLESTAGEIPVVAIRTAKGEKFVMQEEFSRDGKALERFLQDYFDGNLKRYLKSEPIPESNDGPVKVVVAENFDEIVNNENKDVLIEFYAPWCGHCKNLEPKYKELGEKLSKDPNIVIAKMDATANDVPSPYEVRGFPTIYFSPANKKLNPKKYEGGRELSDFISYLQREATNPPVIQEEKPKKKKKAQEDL
property.label: IC50

Using the record for CC(=O)Oc1ccc(C[C@@H](OC(C)=O)C(=O)OCc2nc(C)c(C)nc2C)cc1OC(C)=O [ADTM] , state its measured IC50.
100 to 300 µM
